molecular target: BubR1/Bub3 complex (3×FLAG–BubR1 with untagged Bub3) (UniProt O60566 1-1050; O43684 1-328); experiment: MST
Sequence (O60566 whole entry, chain 1 of 2): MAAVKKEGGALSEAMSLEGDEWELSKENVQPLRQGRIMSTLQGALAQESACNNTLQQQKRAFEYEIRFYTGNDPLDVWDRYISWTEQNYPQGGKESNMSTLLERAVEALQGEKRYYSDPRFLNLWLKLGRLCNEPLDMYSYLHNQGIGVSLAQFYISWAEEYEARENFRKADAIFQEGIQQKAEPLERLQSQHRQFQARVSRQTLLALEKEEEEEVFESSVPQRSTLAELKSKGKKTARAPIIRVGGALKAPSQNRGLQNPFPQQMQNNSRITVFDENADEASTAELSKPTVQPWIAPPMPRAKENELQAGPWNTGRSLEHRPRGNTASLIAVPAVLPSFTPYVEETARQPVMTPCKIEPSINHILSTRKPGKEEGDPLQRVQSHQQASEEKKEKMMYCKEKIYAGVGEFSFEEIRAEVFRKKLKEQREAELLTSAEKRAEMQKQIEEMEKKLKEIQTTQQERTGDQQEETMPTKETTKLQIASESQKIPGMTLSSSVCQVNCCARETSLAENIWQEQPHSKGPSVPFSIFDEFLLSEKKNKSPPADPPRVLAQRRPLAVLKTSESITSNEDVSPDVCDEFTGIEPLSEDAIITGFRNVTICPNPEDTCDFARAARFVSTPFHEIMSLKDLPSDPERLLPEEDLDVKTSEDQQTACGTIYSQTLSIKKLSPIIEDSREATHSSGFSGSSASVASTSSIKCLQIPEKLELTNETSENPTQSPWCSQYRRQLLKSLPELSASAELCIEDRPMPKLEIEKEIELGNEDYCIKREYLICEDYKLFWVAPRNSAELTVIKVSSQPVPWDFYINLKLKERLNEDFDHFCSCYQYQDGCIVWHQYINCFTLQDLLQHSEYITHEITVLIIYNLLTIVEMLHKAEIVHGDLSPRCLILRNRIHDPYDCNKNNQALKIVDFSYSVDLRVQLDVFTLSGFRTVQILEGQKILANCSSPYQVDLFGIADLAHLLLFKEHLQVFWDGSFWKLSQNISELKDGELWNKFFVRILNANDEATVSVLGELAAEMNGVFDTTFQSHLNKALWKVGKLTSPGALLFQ
Sequence (O43684 whole entry, chain 2 of 2): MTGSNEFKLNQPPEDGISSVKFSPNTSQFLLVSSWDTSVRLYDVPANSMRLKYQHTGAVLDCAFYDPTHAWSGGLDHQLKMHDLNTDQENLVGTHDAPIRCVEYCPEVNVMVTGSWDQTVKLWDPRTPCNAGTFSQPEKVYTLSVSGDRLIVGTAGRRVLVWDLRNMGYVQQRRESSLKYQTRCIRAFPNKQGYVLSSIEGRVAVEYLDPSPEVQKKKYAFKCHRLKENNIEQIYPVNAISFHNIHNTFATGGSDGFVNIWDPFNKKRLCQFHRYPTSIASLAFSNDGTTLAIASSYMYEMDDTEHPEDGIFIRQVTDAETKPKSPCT
MEASUREMENT_KIND: pKd
In plain terms, pKd is the concentration in mol/L turned into minus its base-10 logarithm.

[Q] Quick check: pKd of EDDKNDMDITKSYTIEIN (N-terminal Btn-PEG2-C-PEG2 (biotin, PEG2, cysteine, PEG2); Nle (norleucine) at position 7 of the letters, written here as M; phosphothreonine (Tp) at position 10 of the letters (MDIT); C-terminal amide) [MELT12p peptide (MDIT phosphorylated), Btn-PEG2-C-PEG2-EDDKND-Nle-DI-Tp-KSYTIEIN-amide] ?
[A] 6.59
